Data origin: paper PMC10397247

SYSTEM TESTED: T1, 4H3920-AA
T1 chain: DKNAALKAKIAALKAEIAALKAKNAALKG
ASSAY: two-hybrid library CCmax;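 further: natural log of median RNA to DNA barcode read ratio; higher means stronger binding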
STUDY CONDITIONS: mean of both orientations
RESULT TYPE: interaction score

Qu. Quick check: interaction score of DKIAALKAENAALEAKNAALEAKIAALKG [4H2742-AA] ?
Ans. -1.23

Qu. # lookup: interaction score of DKNAALKAEIAALEAKIAALKAENAALKG [4H3628-AA]
Ans. 0.724

Qu. Look at this binder and give its reported interaction score. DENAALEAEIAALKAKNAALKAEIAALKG [4H1146-AA]
Ans. -1.58

Qu. Value lookup for interaction score; key = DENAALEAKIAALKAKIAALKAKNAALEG [4H1391-AA]
Ans. -0.296

Qu. Consider the binder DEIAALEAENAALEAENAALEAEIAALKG [4H146-AA] and give its measured interaction score.
Ans. 0.785

I: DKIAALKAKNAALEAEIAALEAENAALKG [4H2948-AA]
II: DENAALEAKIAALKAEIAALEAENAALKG [4H1348-AA]
Qu. Which of the two gives a bigger number for interaction score: I or II ? Pick one and reply with its label.
Ans. II

P: DKIAALEAENAALKAKIAALKAENAALEG [4H2283-AA]
Q: DKNAALEAEIAALEAKNAALEAEIAALEG [4H3121-AA]
Qu. Among P and Q , which shows a numerically higher interaction score result? Answer format: the label of the selected item.
Ans. Q

1: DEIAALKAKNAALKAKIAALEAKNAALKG [4H1000-AA]
2: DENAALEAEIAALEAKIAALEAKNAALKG [4H1064-AA]
Qu. Hi! Which is lower in terms of interaction score, the first one 1 or the second one 2 ? Response format: the label of the selected entry.
Ans. 1
(1: -1.89, 2: 1.13)
